System: production of prostaglandin E2 by human fibroblasts
Assay: Inhibition of Production of Prostaglandin E2 in Human Fibroblasts (IL-1 stimulation)
Assay type: cell-based
Details: Fibroblast; human fibroblasts under stimulation with IL-1
# IC50 listing for each entry below
Give just the numeric value; nM need not be written.

Sample records with IC50:
INSERT INTO results (chemicalstructure, systemtested, scaleunit, testvalue) VALUES
  ('CN(Cc1ccccc1)[C@@H]1C[C@@H](C(=O)Nc2ccc(/C=C3\SC(=S)NC3=O)cc2)N(C(=O)c2ccccc2C(=O)c2ccc(F)cc2)C1', 'production of prostaglandin E2 by human fibroblasts', 'nM', 760),
  ('O=C1NC(=O)/C(=C/c2ccc(S(=O)(=O)NC[C@@H]3C[C@@H](SCc4ccccc4-c4ccccc4)CN3C(=O)c3ccccc3C(=O)c3ccc(F)cc3)cc2)S1', 'production of prostaglandin E2 by human fibroblasts', 'nM', 980),
  ('O=C(/C=C/c1ccc(/C=C2\SC(=O)NC2=O)cc1)NC[C@@H]1C[C@@H](OCc2ccccc2-c2ccccc2)CN1C(=O)c1ccccc1C(=O)c1ccc(F)cc1', 'production of prostaglandin E2 by human fibroblasts', 'nM', 620),
  ('O=C1NC(=O)/C(=C/c2ccc(C(=O)NC[C@@H]3C[C@@H](OCc4ccccc4-c4ccccc4)CN3C(=O)c3ccccc3C(=O)c3ccc(F)cc3)s2)S1', 'production of prostaglandin E2 by human fibroblasts', 'nM', 1600),
  ('O=C1NC(=O)/C(=C/c2ccc(C(=O)NC[C@@H]3C[C@@H](Oc4cc(-c5ccccc5)c5ccccc5c4)CN3C(=O)c3ccccc3C(=O)c3ccc(F)cc3)cc2)S1', 'production of prostaglandin E2 by human fibroblasts', 'nM', 350);

Ask: Quick check: IC50 of O=C1NC(=O)/C(=C/c2ccc(C(=O)NC[C@@H]3C[C@@H](OCc4ccccc4-c4ccccc4)CN3C(=O)c3ccccc3C(=O)c3ccoc3)cc2)S1 ?
Reply: 700

Ask: Quick check: IC50 of O=C1NC(=O)/C(=C/c2ccc(C(=O)NC[C@@H]3C[C@@H](Oc4ccccc4Oc4ccccc4)CN3C(=O)c3ccccc3C(=O)c3ccc(F)cc3)cc2)S1 ?
Reply: 2800

Ask: Quick check: IC50 of O=C1NC(=O)/C(=C/c2ccc(C(=O)NC[C@@H]3C[C@@H](Oc4ccccc4-c4cccc(C(F)(F)F)c4)CN3C(=O)c3ccccc3C(=O)c3ccc(F)cc3)cc2)S1 ?
Reply: 1200

Ask: Quick check: IC50 of O=C1NC(=O)/C(=C/c2ccc(C(=O)NC[C@@H]3C[C@@H](OCc4ccccc4-c4ccccc4)CN3C(=O)c3ccccc3C(=O)c3ccc(F)cc3F)cc2)S1 ?
Reply: 800

Ask: Quick check: IC50 of CC(C)c1cccc(Br)c1O[C@@H]1C[C@@H](CNC(=O)c2ccc(/C=C3\SC(=O)NC3=O)cc2)N(C(=O)c2ccccc2C(=O)c2ccc(F)cc2)C1 ?
Reply: 320

Ask: Quick check: IC50 of O=C1NC(=O)/C(=C/c2ccc(C(=O)NC[C@@H]3C[C@@H](SCc4ccccc4-c4ccccc4)CN3C(=O)c3ccccc3C(=O)c3ccc(F)cc3)s2)S1 ?
Reply: 690
